We begin with a simple list: items and their reported TI.
Test: Therapeutic index, ratio of TC50 for human MAGI-CCR5 cells to IC50 for HIV-1 Bal infected in MAGI-CCR5 cells
Reply: number alone, nothing else.

- compound: "CC1=C(c2nc(-c3ccc(C#N)cc3)cs2)C(c2ccc(F)nc2)NC(=O)N1 (centres undefined)"
  TI: 91
- compound: "CC1=C(c2nc(-c3cccs3)cs2)C(c2cccc(O)c2)NC(=O)N1 (centres undefined)"
  TI: 2

Query block: Item under review: CC1=C(c2nc(-c3ccc4ccccc4c3)cs2)C(c2cccc(O)c2)NC(=O)N1 (centres undefined) . Reported TI?
Result block: 1.3

Query block: Any idea what its TI is? The compound is COc1ncccc1C1NC(=O)NC(C)=C1c1nc(-c2ccc(C#N)cc2)cs1 (centres undefined)
Result block: 26
